Sourced from patent US6730697B2

MEASURED ON: human NHE-1 (Homo sapiens, UniProt P19634)
Sequence (P19634 whole entry): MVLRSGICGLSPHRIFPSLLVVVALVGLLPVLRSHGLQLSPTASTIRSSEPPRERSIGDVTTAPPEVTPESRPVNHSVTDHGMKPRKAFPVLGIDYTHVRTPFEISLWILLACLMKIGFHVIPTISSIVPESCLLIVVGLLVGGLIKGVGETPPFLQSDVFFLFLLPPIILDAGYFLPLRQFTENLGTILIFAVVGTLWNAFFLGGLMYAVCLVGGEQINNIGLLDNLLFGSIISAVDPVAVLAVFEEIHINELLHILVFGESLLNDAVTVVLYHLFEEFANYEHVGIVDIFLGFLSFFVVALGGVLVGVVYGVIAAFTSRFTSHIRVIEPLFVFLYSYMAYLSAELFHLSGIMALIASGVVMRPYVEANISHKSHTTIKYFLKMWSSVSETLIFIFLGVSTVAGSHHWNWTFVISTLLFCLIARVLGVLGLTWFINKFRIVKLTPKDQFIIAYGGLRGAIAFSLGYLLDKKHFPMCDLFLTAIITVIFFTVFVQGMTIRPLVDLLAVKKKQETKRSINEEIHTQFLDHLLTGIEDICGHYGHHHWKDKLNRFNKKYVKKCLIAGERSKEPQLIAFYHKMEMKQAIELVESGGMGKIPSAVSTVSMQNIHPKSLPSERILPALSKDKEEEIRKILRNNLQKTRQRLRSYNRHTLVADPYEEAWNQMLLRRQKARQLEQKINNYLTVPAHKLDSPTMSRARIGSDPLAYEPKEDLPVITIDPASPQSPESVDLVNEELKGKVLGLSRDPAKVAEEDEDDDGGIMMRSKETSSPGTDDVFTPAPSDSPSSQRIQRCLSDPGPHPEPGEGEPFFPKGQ
EXPERIMENT SUMMARY: FLIPR assay for NHE-1 inhibition by recovery of pHi in transfected cell lines
MEASUREMENT SETUP: transfected LAP-1 cell line expressing human NHE-1, BCECF fluorescence
Counter-ions that a name gives are not always drawn.
Param label: returns 1 when IC50 < 20 nM, returns 0 otherwise, including exact equality.

Solved entries (count: 3):
Cc1cc2c(cc1C(=O)NC(=N)N)S(=O)(=O)Cc1ccc(F)cc1-2 [Example 5, Formate] | 1
Cc1cc2c(cc1C(=O)NC(=N)N)S(=O)(=O)Cc1c(Cl)cccc1-2 [Example 9, Formate] | 1
Cc1cc2c(cc1C(=O)NC(=N)N)S(=O)(=O)Cc1ccc(Cl)cc1-2 [Example 7, Formate] | 1

Criterion: IC50 strictly below 20 nM. Is it met by Cc1cc2c(cc1C(=O)NC(=N)N)S(=O)(=O)Cc1c(F)cccc1-2 [Example 6, Formate] ?
1

Criterion: IC50 strictly below 20 nM. Is it met by Cc1cc2c(cc1C(=O)NC(=N)N)S(=O)(=O)Cc1ccccc1-2 [Example 1, Formate] ?
1

Criterion: IC50 strictly below 20 nM. Is it met by Cc1cc2c(cc1C(=O)NC(=N)N)S(=O)(=O)Cc1cccc(C)c1-2 [Example 10, Formate] ?
0

Criterion: IC50 strictly below 20 nM. Is it met by Cc1ccc2c(c1)-c1cc(C)c(C(=O)NC(=N)N)cc1S(=O)(=O)C2 [Example 3, Formate] ?
1

Criterion: IC50 strictly below 20 nM. Is it met by Cc1cc2c(cc1C(=O)NC(=N)N)S(=O)(=O)Cc1cc(Cl)ccc1-2 [Example 4, Formate] ?
1

Criterion: IC50 strictly below 20 nM. Is it met by COc1ccc2c(c1)CS(=O)(=O)c1cc(C(=O)NC(=N)N)c(C)cc1-2 [Example 8, Formate] ?
1

Criterion: IC50 strictly below 20 nM. Is it met by Cc1cc2c(cc1C(=O)NC(=N)N)S(=O)(=O)Cc1ccc3ccccc3c1-2 [Example 2, Formate] ?
0
